These data points were gathered from patent US12559464B2.

- Test system: myosin ATPase, Porcine Atria myofibrils
- measurement.protocol: Myofibril ATPase assay, porcine atria myofibrils
- Assay type: biochemical
- applied.conditions: concentration required to reduce myosin ATP-ase activity by 25%; Porcine Atria Prep pCa 25 GEOM_MEAN
readout: Porcine Atria EC25 (Y75 value) (µM)

The following compounds have reported results that may help.
- compound: "C[C@H](NC(=O)[C@H](C)n1c(=O)[nH]c2ccc(F)cc2c1=O)c1ccc(F)cc1F"
  Porcine Atria EC25 (Y75 value) (µM): 0.1074
- compound: "C[C@H](NC(=O)Cn1c(=O)[nH]c2ncccc2c1=O)c1ccc(F)cc1F"
  Porcine Atria EC25 (Y75 value) (µM): 100

[I] CC(C)CN(C(=O)Cn1c(=O)[nH]c2ccccc2c1=O)C(C)c1ccc(F)cc1F (stereo not shown)
[II] CC(C)C(C(=O)N[C@@H](C)c1ccc(F)cc1F)n1c(=O)[nH]c2ccccc2c1=O (single isomer, unassigned)
Lab notebook, comparison: I versus II , higher Porcine Atria EC25 (Y75 value) goes to which? When you have decided, please share the label of that item.
II

----------
- Tested on: myosin ATPase, Porcine Atria myofibrils
- measurement.protocol: Myofibril ATPase assay, porcine atria myofibrils
- Format: biochemical
- applied.conditions: concentration required to reduce myosin ATP-ase activity by 25%; Porcine Atria Prep pCa 25 GEOM_MEAN
readout: Porcine Atria EC25 (Y75 value) (µM)

The following molecules have reported results that may help.
- molecule: "C[C@H](NC(=O)C(c1ccccc1)n1c(=O)[nH]c2ccccc2c1=O)c1ccc(F)cc1F (single isomer, unassigned)"
  tested.on: "myosin ATPase, Porcine Atria myofibrils"
  Porcine Atria EC25 (Y75 value) [µM]: 100
- molecule: "O=C(Cn1c(=O)[nH]c2ccccc2c1=O)N[C@H]1CCCc2cc(F)cc(F)c21 (single isomer, unassigned)"
  tested.on: "myosin ATPase, Porcine Atria myofibrils"
  Porcine Atria EC25 (Y75 value) [µM]: 100

[a] C[C@@H](NC(=O)Cn1c(=O)[nH]c2ccc(F)cc2c1=O)c1ncc(C#N)cn1 (single isomer, unassigned)
[b] C[C@@H](NC(=O)Cn1c(=O)[nH]c2ccc(F)c(F)c2c1=O)c1ccc(C#N)cn1 (single isomer, unassigned)
[c] CC(C)[C@H](NC(=O)Cn1c(=O)[nH]c2ccccc2c1=O)c1ccc(F)cc1F (single isomer, unassigned)
[d] Cc1cc(F)ccc1[C@H](C)NC(=O)Cn1c(=O)[nH]c2ccccc2c1=O (single isomer, unassigned)
Sort the 4 molecules by Porcine Atria EC25 (Y75 value); largest first, smallest last. Submit the labels in the order that the ranking request calls for.
c, a, b, d
(c: 100 µM, a: 0.699 µM, b: 0.427 µM, d: 0.1046 µM)

----------
- tested.on: myosin ATPase, Porcine Ventricle myofibrils (Sus scrofa)
- Construct: Myofibrils from porcine cardiac muscle was isolated from the left ventricle of Yucatan minipigs; tissue Exemplar Genetics; host or cells: left ventricle of Yucatan minipigs, myofibrils
- measurement.protocol: Myofibril ATPase assay, porcine ventricle myofibrils
- Format: biochemical, porcine (Yucatan minipigs)
- applied.conditions: concentration required to reduce myosin ATP-ase activity by 25%; Porcine Ventricle Prep pCa 25 GEOM_MEAN
- Protocol: Myofibril ATPase assays are known in the art to be useful in evaluating small molecules for the treatment of HCM and other cardiac indications. Myosin ATPase activity is assessed by using a coupled reaction system, in which ADP generated by the myosin ATPase function is coupled to the disappearance of NADH through the pyruvate kinase/lactate dehydrogenase (PK-LDH) system. ATPase activity produces ADP, which is used as a substrate for PK to produce pyruvate and regenerate ATP. […]
readout: Porcine Ventricle EC25 (Y75 value) (nM)

- compound: "C[C@H](NC(=O)[C@@H](C)n1c(=O)[nH]c2cccc(O)c2c1=O)c1ccc(F)cc1F (single isomer, unassigned)"
  tested.on: "myosin ATPase, Porcine Ventricle myofibrils (Sus scrofa)"
  measured.result: 1350
- compound: "C[C@H](NC(=O)Cn1c(=O)[nH]c2cccc(O)c2c1=O)c1ccc(F)cc1F"
  tested.on: "myosin ATPase, Porcine Ventricle myofibrils (Sus scrofa)"
  measured.result: 252.4

[P] C[C@H](NC(=O)Cn1c(=O)[nH]c2ccccc2c1=O)c1ccccc1 (single isomer, unassigned)
[Q] C[C@H](NC(=O)Cn1c(=O)[nH]c2ccc(F)cc2c1=O)c1ncc(C#N)cc1F (single isomer, unassigned)
Identify the item whose Porcine Ventricle EC25 (Y75 value) is the smaller number: P or Q When you have decided, please share the label of that item.
Q

----------
- Test system: myosin ATPase, Rabbit Psoas myofibrils
- measurement.protocol: Myofibril ATPase assay, rabbit psoas (skeletal) myofibrils
- Format: biochemical
- applied.conditions: concentration required to reduce myosin ATP-ase activity by 25%; Rabbit Psoas Prep pCa 25 GEOM_MEAN
readout: Rabbit Psoas EC25 (Y75 value) (µM)

- compound: "O=C(Cn1c(=O)[nH]c2ccccc2c1=O)NCc1ccc(Cn2cccn2)cc1"
  Rabbit Psoas EC25 (Y75 value) / µM: 100
- compound: "C[C@H](NC(=O)Cn1c(=O)[nH]c2ccccc2c1=O)c1cc(C(F)(F)F)cc(C(F)(F)F)c1 (single isomer, unassigned)"
  Rabbit Psoas EC25 (Y75 value) / µM: 100
- compound: "CC(NC(=O)Cn1c(=O)[nH]c2ccccc2c1=O)c1cncnc1 (stereo not drawn)"
  Rabbit Psoas EC25 (Y75 value) / µM: 100

----------
- Test system: myosin ATPase, Porcine Atria myofibrils
- measurement.protocol: Myofibril ATPase assay, porcine atria myofibrils
- Format: biochemical
- applied.conditions: concentration required to reduce myosin ATP-ase activity by 25%; Porcine Atria Prep pCa 25 GEOM_MEAN
readout: Porcine Atria EC25 (Y75 value) (µM)

The following compounds have reported results that may help.
- compound: "C[C@H](NC(=O)Cn1c(=O)[nH]c2ccc(F)cc2c1=O)c1ncc(C#N)cn1 (single isomer, unassigned)"
  tested.on: "myosin ATPase, Porcine Atria myofibrils"
  readout: "Porcine Atria EC25 (Y75 value)"
  value.unit: "µM"
  measured.result: 24.53
- compound: "CC(NC(=O)Cn1c(=O)[nH]c2ccccc2c1=O)c1cccs1 (centres unmarked)"
  tested.on: "myosin ATPase, Porcine Atria myofibrils"
  readout: "Porcine Atria EC25 (Y75 value)"
  value.unit: "µM"
  measured.result: 100
- compound: "CC(C)C[C@@H](C(=O)N[C@@H](C)c1ncc(F)cc1F)n1c(=O)[nH]c2ccccc2c1=O (single isomer, unassigned)"
  tested.on: "myosin ATPase, Porcine Atria myofibrils"
  readout: "Porcine Atria EC25 (Y75 value)"
  value.unit: "µM"
  measured.result: 100

[A] C[C@H](NC(=O)Cn1c(=O)[nH]c2ccc(F)c(F)c2c1=O)c1ncc(C#N)cc1F (single isomer, unassigned)
[B] C[C@@H](NC(=O)Cn1c(=O)[nH]c2ccc(F)c(C#N)c2c1=O)c1ncc(C#N)cc1F (single isomer, unassigned)
Identify the item whose Porcine Atria EC25 (Y75 value) is the smaller number: A or B When you have decided, please share the label of that item.
A

----------
- tested.on: myosin ATPase, Porcine Ventricle myofibrils (Sus scrofa, UniProt P79293)
- Construct: Myofibrils from porcine cardiac muscle was isolated from the left ventricle of Yucatan minipigs; tissue Exemplar Genetics; host or cells: left ventricle of Yucatan minipigs, myofibrils
- Sequence (P79293 whole entry): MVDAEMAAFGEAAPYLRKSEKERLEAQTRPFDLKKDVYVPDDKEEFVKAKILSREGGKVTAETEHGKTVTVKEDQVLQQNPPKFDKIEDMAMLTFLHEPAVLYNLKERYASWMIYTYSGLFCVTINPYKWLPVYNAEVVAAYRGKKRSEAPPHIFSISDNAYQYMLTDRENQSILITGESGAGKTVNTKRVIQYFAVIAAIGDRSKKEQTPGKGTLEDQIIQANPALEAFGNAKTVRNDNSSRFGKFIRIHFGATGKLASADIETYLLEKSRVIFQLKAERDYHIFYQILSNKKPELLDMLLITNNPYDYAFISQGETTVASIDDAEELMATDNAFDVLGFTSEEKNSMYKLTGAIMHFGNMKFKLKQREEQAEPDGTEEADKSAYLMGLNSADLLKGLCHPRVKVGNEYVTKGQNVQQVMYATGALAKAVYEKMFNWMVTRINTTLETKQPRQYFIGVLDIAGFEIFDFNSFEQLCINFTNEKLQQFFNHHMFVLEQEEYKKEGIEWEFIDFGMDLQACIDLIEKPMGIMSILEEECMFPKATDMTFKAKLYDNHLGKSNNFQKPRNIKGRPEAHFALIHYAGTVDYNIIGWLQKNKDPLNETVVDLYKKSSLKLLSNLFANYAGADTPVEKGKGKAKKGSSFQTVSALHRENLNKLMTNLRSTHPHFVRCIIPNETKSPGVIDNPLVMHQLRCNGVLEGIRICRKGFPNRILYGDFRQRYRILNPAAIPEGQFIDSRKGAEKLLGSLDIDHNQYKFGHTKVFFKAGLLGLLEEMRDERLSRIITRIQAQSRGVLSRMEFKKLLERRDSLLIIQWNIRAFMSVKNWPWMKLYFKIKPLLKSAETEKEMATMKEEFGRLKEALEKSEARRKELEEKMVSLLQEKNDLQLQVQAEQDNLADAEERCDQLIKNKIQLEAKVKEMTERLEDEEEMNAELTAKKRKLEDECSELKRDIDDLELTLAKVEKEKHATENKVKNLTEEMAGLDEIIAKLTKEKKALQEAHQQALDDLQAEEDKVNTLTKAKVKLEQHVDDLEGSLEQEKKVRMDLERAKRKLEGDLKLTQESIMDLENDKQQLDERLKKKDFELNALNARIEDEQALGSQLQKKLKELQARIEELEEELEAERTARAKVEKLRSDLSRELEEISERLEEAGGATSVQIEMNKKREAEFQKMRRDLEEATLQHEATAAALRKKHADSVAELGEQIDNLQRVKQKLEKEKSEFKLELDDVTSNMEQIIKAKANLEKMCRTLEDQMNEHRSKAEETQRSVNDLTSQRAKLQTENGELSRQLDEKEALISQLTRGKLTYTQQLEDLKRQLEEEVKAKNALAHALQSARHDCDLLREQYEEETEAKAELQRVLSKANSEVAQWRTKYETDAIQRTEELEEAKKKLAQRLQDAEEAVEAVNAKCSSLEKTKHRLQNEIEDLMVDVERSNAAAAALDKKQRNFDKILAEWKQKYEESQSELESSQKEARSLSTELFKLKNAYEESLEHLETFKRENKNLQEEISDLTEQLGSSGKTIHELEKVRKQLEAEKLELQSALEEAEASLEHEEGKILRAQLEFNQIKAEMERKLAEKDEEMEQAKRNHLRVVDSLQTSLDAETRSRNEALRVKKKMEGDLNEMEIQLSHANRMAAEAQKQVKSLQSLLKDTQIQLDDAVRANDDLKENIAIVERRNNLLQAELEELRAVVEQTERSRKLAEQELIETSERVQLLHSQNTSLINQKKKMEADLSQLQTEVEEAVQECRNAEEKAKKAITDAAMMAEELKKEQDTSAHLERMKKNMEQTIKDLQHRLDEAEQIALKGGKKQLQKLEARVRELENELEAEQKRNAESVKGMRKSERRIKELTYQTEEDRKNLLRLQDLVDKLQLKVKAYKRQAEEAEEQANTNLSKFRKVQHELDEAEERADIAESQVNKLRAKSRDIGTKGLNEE
- measurement.protocol: Myofibril ATPase assay, porcine ventricle myofibrils
- Assay type: biochemical, porcine (Yucatan minipigs)
- applied.conditions: concentration required to reduce myosin ATP-ase activity by 25%; Porcine Ventricle Prep pCa 25 GEOM_MEAN
readout: Porcine Ventricle EC25 (Y75 value) (µM)

- molecule: "C[C@H](NC(=O)Cn1c(=O)[nH]c2cccnc2c1=O)c1ccc(F)cc1F"
  measured.result: 100
- molecule: "C[C@H](NC(=O)Cn1c(=O)[nH]c2ccc(F)c(F)c2c1=O)c1ccc(F)cc1F"
  measured.result: 0.3333
- molecule: "O=C(Cn1c(=O)[nH]c2ccccc2c1=O)N[C@H]1CCc2cc(F)cc(F)c21 (single isomer, unassigned)"
  measured.result: 7.872
- molecule: "Cc1c(F)ccc2[nH]c(=O)n(CC(=O)N[C@H]3CCc4cc(C#N)cnc43)c(=O)c12"
  measured.result: 100
- molecule: "C[C@@H](NC(=O)C1(n2c(=O)[nH]c3ccc(F)c(F)c3c2=O)CC1)c1ncc(C#N)cc1F (single isomer, unassigned)"
  measured.result: 13.07
- molecule: "C[C@H](NC(=O)Cn1c(=O)[nH]c2ccc(F)cc2c1=O)c1ncc(C#N)cn1 (single isomer, unassigned)"
  measured.result: 100
- molecule: "C[C@H](NC(=O)Cn1c(=O)[nH]c2ncccc2c1=O)c1ccc(F)cc1F"
  measured.result: 100

[P] CC(NC(=O)Cn1c(=O)[nH]c2ccccc2c1=O)c1ccccc1Cl (stereo not shown)
[Q] CCC(NC(=O)Cn1c(=O)[nH]c2ccccc2c1=O)c1ccc(F)cc1F (stereo not shown)
[R] Cc1c(F)ccc2[nH]c(=O)n(CC(=O)N[C@H](C)c3ncc(C#N)cn3)c(=O)c12 (single isomer, unassigned)
Which order do these items take when sorted by rising Porcine Ventricle EC25 (Y75 value)? List them. Submit the labels in the order that the ranking request calls for.
R, Q, P
